System: PC-3 prostate
Test: NCI tumour cell line growth inhibition, 48 h
assay.readout: TGI

INSERT INTO assay_data (compound_structure_string, assay_readout, val) VALUES
  ('COc1ccc2c(c1)Cc1c-2c(NN)nc2ccccc12', 'TGI', '> 100 µM'),
  ('COc1cc(-c2nc3ccccc3s2)ccc1OCc1nc2n(n1)S(=O)(=O)c1ccccc1N2C', 'TGI', '> 100 µM');

// switching to the query compound
Name the recorded TGI for Cc1ccc(C(=O)NC2CCCCC2)cc1-c1ccc(C(=O)NCC2CC2)cc1 .
> 25 µM

---

System: OVCAR-3 ovarian
Assay: NCI tumour cell line growth inhibition, 48 h
Record form. Attribute: GI50. Fill in for each entry.

// solved cases for GI50 follow
INSERT INTO assay_data (compound_structure_string, target, assay_readout, val) VALUES
  ('CC/C(=C(\CC)c1ccc(OCCN(CC)CC)cc1)c1ccc(OCCN(CC)CC)cc1', 'OVCAR-3 ovarian', 'GI50', '3.45 µM'),
  ('CCCC(=O)NNc1[nH]c(-c2ccc(OC)cc2)cc1C(=O)OCC', 'OVCAR-3 ovarian', 'GI50', '15.5 µM');

// switching to the query molecule
Name the recorded GI50 for COc1cnc2c(c1)C(=O)c1c-2n(CCCN2CCN(C)CC2)c(=O)c2cc(Cl)ccc12 .
15.1 µM

---

Record form. Attribute: TGI. Fill in for each entry.
System: SK-MEL-5 melanoma
Experiment: NCI tumour cell line growth inhibition, 48 h

// solved cases for TGI follow
INSERT INTO assay_data (compound, assay_readout, val) VALUES
  ('COc1ccccc1NC(=O)C1=C(C)NC(C)=C(C(=O)Nc2ccccc2OC)C1c1ccccc1OC', 'TGI', '> 100 µM'),
  ('CCOC(=O)C1=C(C)N(NC(=O)c2ccccc2)C2(O)CCCC12C(=O)OCC (stereo not drawn)', 'TGI', '> 100 µM');

// switching to the query compound
Name the recorded TGI for COc1ccc(OC)c2cc(C3(C)SCCCS3)ccc12 .
> 100 µM

---

Test system: SF-295 CNS
Test: NCI tumour cell line growth inhibition, 48 h
assay.readout: TGI

// solved cases for TGI follow
INSERT INTO measurements (molecule, assay_readout, val) VALUES
  ('COC(=O)c1c(C(=O)OC)c(C(c2ccccc2)c2ccccc2)n(-c2ccccc2)c1Cl', 'TGI', '> 10 µM'),
  ('COC(=O)/C(=C/CC(N=C(c1ccccc1)c1ccccc1)C(=O)OC)N=C(c1ccccc1)c1ccccc1 (stereo not drawn)', 'TGI', '> 100 µM'),
  ('COc1ccc(CCN(C)C(=O)CC(C#N)(c2ccccc2)c2ccc(OC)c(OC)c2)cc1OC (stereo not drawn)', 'TGI', '> 100 µM'),
  ('C#C[C@@]1(O)[C@@H](CO)O[C@@H](n2cc(F)c3c(N)ncnc32)[C@@H]1O', 'TGI', '2.33 µM'),
  ('C/C(=C\c1ccn(-c2ccc(N)cc2)n1)[C@@H]1C[C@@H]2O[C@]2(C)CCC[C@H](C)[C@H](O)[C@@H](C)C(=O)C(C)(C)[C@@H](O)CC(=O)O1', 'TGI', '> 50 µM'),
  ('CCOC(=O)c1c(NC(=O)c2ccc(OC)cc2)sc2c1CCCC2', 'TGI', '> 100 µM'),
  ('CC(C)N1CCCOC(c2ccc([N+](=O)[O-])cc2)O1 (stereo not drawn)', 'TGI', '> 100 µM'),
  ('COc1ccc2c(c1)/C(=C\c1cccc(/C=C3/C(=O)Nc4ccc(OC)cc43)n1)C(=O)N2', 'TGI', '30.3 µM'),
  ('CNC(=O)CN(CC(N)=O)C(=O)NC', 'TGI', '> 100 µM'),
  ('O=C1/C(=C/c2ccccc2)CCCC/C1=C\c1ccccc1', 'TGI', '> 100 µM');

Working through the 6 molecules below one at a time, give TGI for each.
1. CC(C)=CCC[C@@H](C)C1=C(Nc2ccccc2)C(O)=C(C)C(=O)C1=O
2. CCOC(=O)C1=C(C)N(NC(=O)c2ccccc2)C2(O)CCCC12C(=O)OCC (stereo not drawn)
3. O=C1NC(Cc2c[nH]c3ccccc23)C(=O)N2C(c3ccccc3)c3[nH]c4ccccc4c3C[C@@H]12 (stereo partly drawn)
4. NC(=O)Oc1cc(OC(N)=O)cc(N(CCCl)CCCl)c1
5. Nc1c(Cl)c([N+](=O)[O-])cc2c1OCCCCO2
6. CCO/C(O)=C(/C(=N)N1CCCC1)C(=O)Nc1ccc(Cl)cc1

1: 11.1 µM; 2: > 100 µM; 3: 33.1 µM; 4: > 100 µM; 5: > 100 µM; 6: > 100 µM

Working through the 2 molecules below one at a time, give TGI for each.
1. S=C1NN=C2C(=C3CCCC4C5CCCCC5N2C34)N1 (stereo not drawn)
2. CC(C)C(Cl)CC/C(CBr)=C(\Cl)CCl (stereo not drawn)

["> 100 µM", "30.6 µM"]

---

Record form. Attribute: GI50. Fill in for each entry.
Test system: HOP-92 NSCLC
Assay: NCI tumour cell line growth inhibition, 48 h

// solved cases for GI50 follow
INSERT INTO measurements (compound, target, val) VALUES
  ('Cc1ccc2sc3c(NCCCNCCO)nc4ccccc4c3c(=O)c2c1', 'HOP-92 NSCLC', '1280 nM'),
  ('CN(C)CC1CCn2c(c(C3=C(c4cn(C)c5ccccc45)C(=O)NC3=O)c3ccccc32)C1 (stereo not drawn)', 'HOP-92 NSCLC', '1780 nM');

// switching to the query compound
Name the recorded GI50 for COc1cccc2c1c1nc3cc(C)c(C)cc3nc1n2CCN(C)C .
1130 nM

---

Record form. Attribute: GI50. Fill in for each entry.
System: HCT-116 colon

// solved cases for GI50 follow
INSERT INTO measurements (compound_structure_string, val) VALUES
  ('O=C1/C(=C/c2ccc(Cl)cc2)CN(C(=O)C(Cl)Cl)C/C1=C\c1ccc(Cl)cc1', '33.6 nM'),
  ('O=C(/C=C\Sc1nccc(C(F)(F)F)n1)c1ccc(Br)cc1', '12800 nM'),
  ('COc1ccc(F)cc1C(=O)c1cnc(NC2CCN(S(C)(=O)=O)CC2)nc1N', '1210 nM'),
  ('COC(=O)Nc1nc2ccc(Oc3ccc(NC(=O)Nc4cccc(Cl)c4)cc3)cc2[nH]1', '1090 nM');

// switching to the query compound
Name the recorded GI50 for Cc1cc(C)nc(SC2=C(Nc3cccc(Cl)c3)C(=O)N(Cc3ccccc3)C2=O)n1 .
> 170000 nM

---

System: SR leukemia
Experiment: NCI tumour cell line growth inhibition, 48 h
assay.readout: TGI

// solved cases for TGI follow
INSERT INTO assay_data (molecule, assay_readout, val) VALUES
  ('COC(=O)N/N=C(\C)C(CN1CCOCC1)C(c1ccccc1)c1cc2ccccc2oc1=O (stereo not drawn)', 'TGI', '56.5 µM'),
  ('O=C(O)c1cccc(CC(Br)C(=O)O)c1 (stereo not drawn)', 'TGI', '> 100 µM');

// switching to the query molecule
For SR leukemia, provide TGI of CC(CCC(=O)O)[C@H]1CCC2[C@H]3C(CC(=O)[C@@]21C)[C@@]1(C)CCC(O)C[C@H]1C[C@@H]3O (stereo partly drawn) please.
> 100 µM

---

Tested on: SK-OV-3 ovarian
Experiment: NCI tumour cell line growth inhibition, 48 h
Record form. Attribute: TGI. Fill in for each entry.

// solved cases for TGI follow
INSERT INTO measurements (compound, target, assay_readout, val) VALUES
  ('COC(=O)C1C(=O)O[C@@H](c2ccc(OC)cc2OC)C1C(=O)OC (stereo not given in full)', 'SK-OV-3 ovarian', 'TGI', '> 100 µM'),
  ('CC(C)N1CCCOC(c2ccc([N+](=O)[O-])cc2)O1 (stereo not given)', 'SK-OV-3 ovarian', 'TGI', '> 100 µM'),
  ('COc1cc(CCCC(O)COc2cccc3c2C2(O)CCCCCC32)cc(OC)c1 (stereo not given)', 'SK-OV-3 ovarian', 'TGI', '38.5 µM');

Working through the 2 compounds below one at a time, give TGI for each.
1. S=C1NN=C2C(=C3CCCC4C5CCCCC5N2C34)N1 (stereo not given)
2. CCOC(=O)Oc1cc2c(ccn2C)c2c1c1ccccc1n2C(=O)OCC

1: > 100 µM; 2: > 100 µM

---

Record form. Attribute: TGI. Fill in for each entry.
System: EKVX NSCLC
Assay: NCI tumour cell line growth inhibition, 48 h

Working through the 7 compounds below one at a time, give TGI for each.
1. Cn1cnc2c(NCc3ccccc3)nc(NCCO)nc21
2. CCCCc1ccc(N2C(=O)c3cccnc3S2(=O)=O)cc1
3. ON(CCc1ccccn1)Cc1ccccc1
4. C=C(Cl)C(Br)(CBr)CCC(Br)C(C)(C)Br (stereo unspecified)
5. O=S1(=O)OCCCOS(=O)(=O)C1Br
6. COc1ccc(/C(Cl)=C(\C=O)c2ccc(Cl)c(Cl)c2)cc1OC
7. C[C@]12CCC(=O)C=C1CC[C@@H]1[C@@H]2CC[C@]2(C)C(=O)/C(=C/c3cccc(OCCN4CCOCC4)c3)C[C@@H]12

1: 170 µM; 2: > 100 µM; 3: > 100 µM; 4: > 10 µM; 5: > 100 µM; 6: 30.6 µM; 7: 42.3 µM

Working through the 4 compounds below one at a time, give TGI for each.
1. C(/C=N/NC1=NCCCN1)=N\NC1=NCCCN1
2. CCOC(=O)c1c(NC(=O)c2ccc(OC)cc2)sc2c1CCCC2
3. COC(=O)c1cc(C#N)[nH]c1-c1cccs1
4. Cc1ccc2[nH]c(=O)c(C(C#N)c3ccccc3)nc2c1 (stereo unspecified)

1. > 100 µM
2. > 100 µM
3. > 100 µM
4. 84 µM

Working through the 2 compounds below one at a time, give TGI for each.
1. CC1C(=O)N(C)C2(CO)C(=O)O[C@H](C)C12O (stereo partly specified)
2. O=C1CCSc2c(cnc3ccccc23)N1

["> 100 µM", "> 100 µM"]

Working through the 8 compounds below one at a time, give TGI for each.
1. O=C(O)CCC1CCC(c2cc(F)ccc2F)(S(=O)(=O)c2ccc(Cl)cc2)CC1 (stereo unspecified)
2. N#CC1=C(N2CCOCC2)CCC1
3. Nc1c(Cl)c([N+](=O)[O-])cc2c1OCCCCO2
4. CCn1c(=O)c2c3ccc(O)cc3oc2c2ccc(O)cc21
5. CCC(=C(c1ccc(OCc2ccccc2)cc1)c1ccc(OCc2ccccc2)cc1)c1ccc(OC)cc1
6. C=CC(c1ccccc1)C1(O)c2cccc(O)c2C(=O)c2c(O)cccc21 (stereo unspecified)
7. C#C[C@]1(O)CC[C@H]2[C@@H]3CCC4=C/C(=N\OCCN5CCCC5)CC[C@]4(C)[C@H]3CC[C@@]21C
8. CCCC(=O)NNc1[nH]c(-c2ccc(OC)cc2)cc1C(=O)OCC

1: > 100 µM; 2: > 100 µM; 3: > 100 µM; 4: 7.39 µM; 5: > 100 µM; 6: 38.6 µM; 7: 38.1 µM; 8: 32.7 µM
